# EXPERIMENTAL SYSTEM: HLA-B*35:01
# ASSAY SUMMARY: IEDB peptide-MHC binding, purified MHC/competitive/radioactivity; filed as Kd, often an IC50 or EC50 that approximates it; bounds were set here for any values at or beyond the usual limits of such assays
# EXPERIMENTAL CONDITIONS: source organism: Mammarenavirus lassaense
ASSAY METRIC: Kd (nM)
Expressed in nM, but write only the number.

Measured Kd, MPDCGMSVL : 4.63

* * *

# EXPERIMENTAL SYSTEM: HLA-C*05:01
# ASSAY SUMMARY: IEDB peptide-MHC binding, purified MHC/direct/fluorescence; filed as Kd, often an IC50 or EC50 that approximates it; bounds were set here for any values at or beyond the usual limits of such assays
# EXPERIMENTAL CONDITIONS: source organism: Mycobacterium tuberculosis C
ASSAY METRIC: Kd (nM)
Expressed in nM, but write only the number.

Measured Kd, YLDAIQQPV : 25
